Assay: Stability in rat hepatocyte assessed as parent compound remaining measured after 1 hrs
Conditions: hepatocytes
PROPERTY MEASURED: remaining at 1 h

Input: Form field: reported remaining at 1 h of COc1ccccc1CCP(=O)(O)[C@@H](N)CCC(=O)O
Output: 93%

* * *

Assay: Half-life in Sprague-Dawley rat at 2 mg/kg, iv
Details: in vivo
PROPERTY MEASURED: half-life

Input: Form field: reported half-life of COc1ccccc1CCP(=O)(O)[C@@H](N)CCC(=O)O
Output: ~30 min

* * *

Target: Aminopeptidase N (Homo sapiens, UniProt P15144)
Sequence (P15144 whole entry): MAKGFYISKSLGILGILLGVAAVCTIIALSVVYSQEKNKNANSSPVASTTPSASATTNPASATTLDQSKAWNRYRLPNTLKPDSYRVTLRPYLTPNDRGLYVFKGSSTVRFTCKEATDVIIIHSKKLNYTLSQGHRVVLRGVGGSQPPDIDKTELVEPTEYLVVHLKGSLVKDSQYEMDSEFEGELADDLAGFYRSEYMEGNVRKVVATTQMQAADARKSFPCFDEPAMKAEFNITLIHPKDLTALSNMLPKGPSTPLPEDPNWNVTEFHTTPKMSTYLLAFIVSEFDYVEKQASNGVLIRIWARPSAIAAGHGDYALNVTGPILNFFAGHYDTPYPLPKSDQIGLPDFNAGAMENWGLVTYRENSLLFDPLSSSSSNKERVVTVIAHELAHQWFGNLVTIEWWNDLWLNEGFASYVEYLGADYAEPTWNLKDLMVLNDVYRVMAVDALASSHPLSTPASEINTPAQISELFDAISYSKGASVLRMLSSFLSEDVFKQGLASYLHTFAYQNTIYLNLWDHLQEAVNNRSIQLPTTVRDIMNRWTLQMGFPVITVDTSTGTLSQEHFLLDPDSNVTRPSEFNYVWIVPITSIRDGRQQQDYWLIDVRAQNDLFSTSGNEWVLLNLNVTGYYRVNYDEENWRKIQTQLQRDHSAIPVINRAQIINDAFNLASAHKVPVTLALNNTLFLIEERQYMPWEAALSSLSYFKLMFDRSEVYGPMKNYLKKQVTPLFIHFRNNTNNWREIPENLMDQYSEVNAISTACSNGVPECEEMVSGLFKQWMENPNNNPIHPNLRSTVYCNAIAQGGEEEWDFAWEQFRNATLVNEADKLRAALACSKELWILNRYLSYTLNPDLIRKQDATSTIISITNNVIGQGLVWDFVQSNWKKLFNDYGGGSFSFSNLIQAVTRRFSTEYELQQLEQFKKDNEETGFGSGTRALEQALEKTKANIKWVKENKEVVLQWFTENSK
Test: Inhibition of APN (unknown origin)
pIC50: −log10 of the molar value.
PROPERTY MEASURED: pIC50

Input: Form field: reported pIC50 of COc1ccccc1CCP(=O)(O)[C@@H](N)CCC(=O)O
Output: < 4.70

* * *

Test: Hepatic extraction ratio in Sprague-Dawley rat at 2 mg/kg, iv
Conditions: in vivo
PROPERTY MEASURED: hepatic extraction ratio

Input: Form field: reported hepatic extraction ratio of COc1ccccc1CCP(=O)(O)[C@@H](N)CCC(=O)O
Output: ~0.45

* * *

Test: in vivo
Details: Sprague-Dawley, rat, iv, 2 mg/kg
Description: Cmax in Sprague-Dawley rat at 2 mg/kg, iv
PROPERTY MEASURED: Cmax (ng/mL)
Dear colleague, please return just the value in ng/mL, with no unit written.

Input: Form field: reported Cmax of COc1ccccc1CCP(=O)(O)[C@@H](N)CCC(=O)O
Output: 4920

* * *

Assay: in vivo
Details: mouse, iv, 2 mg/kg
Description: AUC (0 to t) in mouse at 2 mg/kg, iv
PROPERTY MEASURED: AUC(0-t) (ng·h/mL)
Dear colleague, please return just the value in ng·h/mL, with no unit written.

Input: Form field: reported AUC(0-t) of COc1ccccc1CCP(=O)(O)[C@@H](N)CCC(=O)O
Output: 919

* * *

Test: in vivo
Conditions: mouse
PROPERTY MEASURED: bioavailability
Note: state the figure and append the unit.

Input: Form field: reported bioavailability of COc1ccccc1CCP(=O)(O)[C@@H](N)CCC(=O)O
Output: 4.1%

* * *

Assay: Drug concentration in Sprague-Dawley rat brain at 2 mg/kg, iv measured after 5 mins
PROPERTY MEASURED: concentration at 5 min (ng/g)
Dear colleague, please return just the value in ng/g, with no unit written.

Input: Form field: reported concentration at 5 min of COc1ccccc1CCP(=O)(O)[C@@H](N)CCC(=O)O
Output: 50.2

* * *

Assay: Drug concentration in Sprague-Dawley rat cerebrospinal fluid at 2 mg/kg, iv measured after 60 mins
PROPERTY MEASURED: concentration at 1 h (ng/mL)
Dear colleague, please return just the value in ng/mL, with no unit written.

Input: Form field: reported concentration at 1 h of COc1ccccc1CCP(=O)(O)[C@@H](N)CCC(=O)O
Output: 115

* * *

Test: Drug concentration in Sprague-Dawley rat brain at 2 mg/kg, iv measured after 60 mins
PROPERTY MEASURED: concentration at 1 h (ng/g)
Dear colleague, please return just the value in ng/g, with no unit written.

Input: Form field: reported concentration at 1 h of COc1ccccc1CCP(=O)(O)[C@@H](N)CCC(=O)O
Output: 15.6

Where these numbers come from: ChEMBL document CHEMBL6074628
